target: human GABAA α1β2γ1 receptor (Homo sapiens (Human), UniProt P14867+Q8N1C3); experiment: Radioligand binding assay, competition for [3H]RO7239181, γ1-containing GABAA subtypes; settings: Table 3; reference compounds comparison
pKi: −log10 of the molar value.
Below is a list of entries, each paired with its recorded pKi value.
MEASUREMENT NAME: pKi

smiles_structure=C[C@@H]1N=C(c2c(F)cccc2F)c2c(cnc(C(F)(F)F)c2Cl)-n2nc(C(=O)N3CC(C)(O)C3)nc21 measurement_name=pKi test_value=7.09
smiles_structure=Cc1nnc2n1-c1cnc(C(F)(F)F)c(Cl)c1C(c1c(F)cccc1F)=N[C@H]2C measurement_name=pKi test_value=7.29
